System: non-tumor PLP2 cells (porcine liver primary cells)
experiment_summary: Sulforhodamine B growth inhibition assay, PLP2 (hepatotoxicity)
protocol_conditions: solvent without extract; range 4% to 0.0156%; mean ± SD
Below: a set of entries, each annotated with reported GI50 PLP2, Solvent.

CC(O)CCO (stereo not shown) [1,3-butanediol]	>4 %, v/v

Given the molecule CC(O)CO (stereo not shown) [1,2-propanediol] , what is its reported GI50 PLP2, Solvent?
>4 %, v/v

Suppose we examine the molecule CCCC(O)CO (stereo not shown) [1,2-pentanediol] ; what GI50 PLP2, Solvent value has been reported?
0.89 ± 0.04a %, v/v

So what does the record say about GI50 PLP2, Solvent for OCCCO [1,3-propanediol] ?
>4 %, v/v

----------
Listed here are compounds together with their documented GI50 HeLa, Solvent.
Tested on: HeLa (cervical carcinoma) cell line
experiment_summary: Sulforhodamine B growth inhibition assay, HeLa
Format: cell-based, human
protocol_conditions: solvent without extract; range 4% to 0.0156%; mean ± SD

CCCC(O)CO (centres unmarked)	0.63 ± 0.04a %, v/v
OCCCO	>4 %, v/v
CCO	>4 %, v/v
CC(O)CCO (centres unmarked)	>4 %, v/v

What does the record list as GI50 HeLa, Solvent for O ?
>4 %, v/v

I'd like to know its GI50 HeLa, Solvent. The compound in question is CC(O)CO (centres unmarked)
>4 %, v/v

GI50 HeLa, Solvent lookup needed for OCC(O)CO , thanks.
>4 %, v/v

What does the data say about its GI50 HeLa, Solvent? Entry: OCCCCCO
0.49 ± 0.02b %, v/v
